System: Proteus vulgaris
test description: Antimicrobial activity against Proteus vulgaris ATCC 3851
Assay type: functional
measurement name: MIC

Solved entries:
CC1=CC[C@H]2C(C)(C)CCC[C@]2(C)[C@H]1C[C@@H](OS(=O)(=O)[O-])[C@H](C)CCC/C(C)=C\Cc1cc(O)ccc1O.[Na+]; > 100 µg/mL
CC1(C)CCC[C@]2(C)[C@H]3CC/C(=C\OS(=O)(=O)[O-])[C@H](CCC4=CC(=O)OC4)[C@@]3(C)CC[C@@H]12.[Na+]; > 100 µg/mL
CC1(C)CCC[C@]2(C)[C@H]3CC/C(=C\OS(=O)(=O)[O-])[C@H](CCC4=CCNC4=O)[C@@]3(C)CC[C@@H]12.[Na+]; > 100 µg/mL
CO[C@@H]1O[C@H](OC)[C@](O)(CC[C@H]2/C(=C/OS(=O)(=O)[O-])CC[C@H]3[C@]2(C)CC[C@H]2C(C)(C)CCC[C@]32C)[C@H]1O.[Na+]; > 100 µg/mL

For the 4 molecules below, give their MIC values.
1. CC1(C)CCC[C@]2(C)[C@H]3CC/C(=C\OS(=O)(=O)[O-])[C@H](CCc4ccoc4)[C@@]3(C)CC[C@@H]12.C[N+](C)=C(N)N [SUVANINE]
2. CC1=CC[C@H]2C(C)(C)CCC[C@]2(C)[C@H]1C/C=C(/C)CCC/C(C)=C/Cc1cc(O)ccc1O [COSCINOQUINOL]
3. CC1=CC[C@H]2C(C)(C)CCC[C@]2(C)[C@H]1C/C=C(\C)CCC/C(C)=C/Cc1cc(O)ccc1O
4. CC1=CCC[C@@H](C)[C@]1(C)CC/C(C)=C/CCC(CCCc1ccoc1)COS(=O)(=O)[O-].[Na+] (stereo partly drawn) [HALISULFATE 2]

Ans:
> 100 µg/mL
6.25 µg/mL
> 100 µg/mL
25 µg/mL

----------
Please respond with reported IC50 for every item in the list.
target under test: Sortase A (Staphylococcus aureus)
Sequence (Q9S446 whole entry): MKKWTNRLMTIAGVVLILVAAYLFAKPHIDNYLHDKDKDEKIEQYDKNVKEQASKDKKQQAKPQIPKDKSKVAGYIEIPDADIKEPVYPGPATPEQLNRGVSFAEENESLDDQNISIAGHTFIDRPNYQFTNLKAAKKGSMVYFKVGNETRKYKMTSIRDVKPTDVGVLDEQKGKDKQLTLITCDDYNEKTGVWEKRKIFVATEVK
test description: Inhibition of recombinant Staphylococcus aureus ATCC 6538p sortase lacking the N-terminal membrane anchor domain expressed in Escherichia coli cells TOP10 using Dabcyl-QALPETGEE-Edans substrate measured after 1 hr by fluorescence S13 spectrophotometry

CC1=CCC[C@@H](C)[C@]1(C)CC/C(C)=C/CCC(CCCc1ccoc1)COS(=O)(=O)[O-].[Na+] (stereo partly drawn) [HALISULFATE 2]; > 200 µM
C=C1CC[C@H]2C(C)(C)CCC[C@]2(C)[C@H]1C[C@@H](OS(=O)(=O)[O-])[C@H](C)CCC/C(C)=C/Cc1cc(O)ccc1O.[Na+]; 98 µM

Q: # value lookup — system Sortase A (Staphylococcus aureus), readout IC50, item CC1(C)CCC[C@]2(C)[C@H]3CC/C(=C\OS(=O)(=O)[O-])[C@H](CCc4ccoc4)[C@@]3(C)CC[C@@H]12.C[N+](C)=C(N)N
Ans: > 200 µM
